measurement_target: rat CB2 receptor (Rattus norvegicus, UniProt Q9QZN9)
Sequence (Q9QZN9 1-360): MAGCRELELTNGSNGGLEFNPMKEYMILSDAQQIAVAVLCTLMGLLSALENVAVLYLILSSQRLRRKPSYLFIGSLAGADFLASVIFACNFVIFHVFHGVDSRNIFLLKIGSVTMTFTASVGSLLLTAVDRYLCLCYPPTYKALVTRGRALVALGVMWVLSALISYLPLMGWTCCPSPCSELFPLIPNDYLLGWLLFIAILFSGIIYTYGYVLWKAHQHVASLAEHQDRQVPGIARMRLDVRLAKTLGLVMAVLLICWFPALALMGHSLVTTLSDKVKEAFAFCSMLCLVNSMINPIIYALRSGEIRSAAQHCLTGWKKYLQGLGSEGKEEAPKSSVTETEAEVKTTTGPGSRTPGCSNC
test_details: GTPγ[35S] functional assay, rat CB2
Format: biochemical
test_readout: pEC50
// returns pEC50 (minus log10 of molar concentration), number only

For reference, reported pEC50 for `CCCCCCN1C(=O)/C(=N\NC(=O)c2ccccc2)c2ccccc21` stands at 7.71

---

test_readout: pKi
// returns pKi (minus log10 of molar concentration), number only

Reading of pKi for CCCCCCN1C(=O)/C(=N\NC(=O)c2ccccc2)c2ccccc21 [MDA19] with rat CB1 receptor (Rattus norvegicus, UniProt P20272): 5.95

---

measurement_target: human CB1 receptor (Homo sapiens, UniProt P21554)
Sequence (P21554 whole entry): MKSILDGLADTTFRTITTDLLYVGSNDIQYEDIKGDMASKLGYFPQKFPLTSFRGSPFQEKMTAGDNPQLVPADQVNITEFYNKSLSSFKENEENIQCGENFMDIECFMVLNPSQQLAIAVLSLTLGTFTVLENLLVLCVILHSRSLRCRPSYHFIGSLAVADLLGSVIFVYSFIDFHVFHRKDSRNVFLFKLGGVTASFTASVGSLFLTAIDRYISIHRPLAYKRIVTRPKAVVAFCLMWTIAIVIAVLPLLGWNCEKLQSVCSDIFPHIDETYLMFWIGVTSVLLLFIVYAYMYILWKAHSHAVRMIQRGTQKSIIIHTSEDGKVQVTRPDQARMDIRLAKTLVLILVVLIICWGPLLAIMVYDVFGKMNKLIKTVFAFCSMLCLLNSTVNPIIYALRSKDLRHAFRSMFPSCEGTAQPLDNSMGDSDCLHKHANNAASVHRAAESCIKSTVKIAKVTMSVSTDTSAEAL
test_readout: Ki

For reference, reported Ki for CCCCCCN1C(=O)/C(=N\NC(=O)c2ccccc2)c2ccccc21 [MDA19] stands at 150 nM

---

measurement_target: human CB2 receptor (Homo sapiens, UniProt P34972)
Sequence (P34972 whole entry): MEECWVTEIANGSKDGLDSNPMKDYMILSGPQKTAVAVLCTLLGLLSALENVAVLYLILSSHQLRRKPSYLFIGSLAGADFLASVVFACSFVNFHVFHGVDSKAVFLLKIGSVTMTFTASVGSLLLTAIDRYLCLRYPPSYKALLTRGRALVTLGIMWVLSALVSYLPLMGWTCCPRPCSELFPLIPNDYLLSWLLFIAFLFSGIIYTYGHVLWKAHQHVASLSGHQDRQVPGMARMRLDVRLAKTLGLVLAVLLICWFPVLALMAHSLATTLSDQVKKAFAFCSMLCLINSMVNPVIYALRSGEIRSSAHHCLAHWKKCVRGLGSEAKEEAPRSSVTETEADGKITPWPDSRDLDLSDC
test_details: Radioligand competitive binding assay, human CB2
test_readout: Ki
Please answer in the form of a number followed by its unit of measurement.

Reading of Ki for `CCCCCCN1C(=O)/C(=N\NC(=O)c2ccccc2)c2ccccc21` with human CB2 receptor (Homo sapiens, UniProt P34972): 0.0433 µM

---

measurement_target: human CB1 receptor (Homo sapiens, UniProt P21554)
test_details: GTPγ[35S] functional assay, human CB1
test_readout: EC50 (µM)
Just the number in µM, nothing appended.

For reference, reported EC50 for `CCCCCCN1C(=O)/C(=N\NC(=O)c2ccccc2)c2ccccc21` stands at 0.922
